# Tested on: IMR-90
# Test Description: relative cell viability (ATPlite) vs untreated control (fraction); higher = less toxic
# Experimental Conditions: 1 µM; 72 h
Heads up, the class ranges for relative cell viability are range A: < 0.9; range B: ≥ 0.9 and < 1; range C: ≥ 1

Note: place this molecule into its band. Item: CN1C(=O)C(c2c[nH]c3ccccc23)=C(c2c[nH]c3ccccc23)C1=O [Bisindolylmaleimide V]
range B

Note: place this molecule into its band. Item: `CCCCn1c2ccc(O)cc2c2c3c(c(-c4ccccc4Cl)cc21)C(=O)NC3=O`
range A

Note: place this molecule into its band. Item: `O=C(Nc1cc(Cl)cc2c1[nH]c1cnccc12)c1cccnc1`
range B

Note: place this molecule into its band. Item: `Nc1nc(Nc2ccc(S(N)(=O)=O)cc2)nn1C(=S)Nc1c(F)cccc1F`
range C

Note: place this molecule into its band. Item: `Cc1ccc([N+](=O)[O-])cc1S(=O)(=O)N(C)/N=C/c1cnc2ccc(Br)cn12`
range A

* * *

# Test system: K562
# Test Description: relative cell viability (ATPlite) vs untreated control (fraction); higher = less toxic
# Experimental Conditions: 1 µM; 72 h
For each of the compounds below, state its relative cell viability.
Just the number, please, no unit attached.

Note down relative cell viability recorded for c1nc2c(NC3CCCCC3)nc(Nc3ccc(N4CCOCC4)cc3)nc2[nH]1 [Reversine]
0.578

Note down relative cell viability recorded for `Nc1ccc(-c2cccc3c(=O)cc(N4CCOCC4)oc23)cc1`
0.79

Note down relative cell viability recorded for COc1ccc(Cl)cc1NC(=O)Nc1cc(C)nc2ccccc12 [IGF-1R Inhibitor II]
0.933

Note down relative cell viability recorded for COc1cc2ncnc(Nc3ccc(NC(=O)c4ccccc4)cc3)c2cc1OC [Aurora Kinase Inhibitor II]
0.909

Note down relative cell viability recorded for COc1ccc(CNc2nc(N(CCO)CCO)nc3c2ncn3C(C)C)cc1 [Cdk2 Inhibitor III]
0.855

Note down relative cell viability recorded for CN1C(=O)C(c2c[nH]c3ccccc23)=C(c2c[nH]c3ccccc23)C1=O [Bisindolylmaleimide V]
0.88

Note down relative cell viability recorded for `Fc1ccc(-c2nc3n(c2-c2ccncc2)CCS3)cc1`
0.845

Note down relative cell viability recorded for `COc1ccc2nc3n[nH]c(C)c3c(NCCOCCO)c2c1`
1.02

Note down relative cell viability recorded for O=C1NC(=O)c2c1c1c3ccccc3[nH]c1n1cncc21 [Isogranulatimide]
0.837

Note down relative cell viability recorded for CC[C@@H](CO)Nc1nc(NCc2ccc(-c3ccccn3)cc2)c2ncn(C(C)C)c2n1 [CR8, (S)-Isomer]
0.0828

Note down relative cell viability recorded for O=C(Nc1cc(C(F)(F)F)cc(C(F)(F)F)c1)c1cc(Cl)ccc1O [IKK-2 Inhibitor V]
0.505

Note down relative cell viability recorded for `CS(=O)(=O)c1ccc(-c2nc(-c3ccc(F)cc3)c(-c3ccncc3)[nH]2)cc1`
0.831

Note down relative cell viability recorded for CC(=O)O/N=C1/C(c2c(O)[nH]c3cc(Br)ccc23)=Nc2ccccc21 [GSK-3 Inhibitor X]
0.885

Note down relative cell viability recorded for `Cc1nc(-c2ccccc2)c(-c2ccncc2)o1`
0.835

Note down relative cell viability recorded for CCCC(=O)Oc1ccc2[nH]c(C(=O)c3cc4ccccc4[nH]3)cc2c1 [PDGF Receptor Tyrosine Kinase Inhibitor II]
0.812

Note down relative cell viability recorded for CO[C@H]1C[C@@H]2CC[C@@H](C)[C@@](O)(O2)C(=O)C(=O)N2CCCC[C@H]2C(=O)O[C@H]([C@H](C)C[C@@H]2CC[C@@H](O)[C@H](OC)C2)CC(=O)[C@H](C)/C=C(\C)[C@@H](O)[C@@H](OC)C(=O)[C@H](C)C[C@H](C)/C=C/C=C/C=C/1C [Rapamycin]
0.585

Note down relative cell viability recorded for C[S+]([O-])c1ccc(-c2nc(-c3ccc(F)cc3)c(-c3ccncc3)[nH]2)cc1 (configuration not stated)
0.921
